B1: ZC3H15 (parent)
chain: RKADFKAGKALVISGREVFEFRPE

# Variants of: B1
# procedure_summary: protein stability index of a GFP-peptide fusion (GPS, HEK-293T) (PSI 1-6); higher = more stable;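 also: lentivirally expressed fusions sorted by FACS into six bins by GFP to DsRed ratio, PSI derived from sequencing read proportions per bin multiplied by bin number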
# condition_parameters: c terminus: a fixed tail appended
# protein stability index values compiled below
When you answer, write just the number.

Solved entries (count: 3):
[[record]]
mutant_id = "A7Q"
reported_result = 2.93

[[record]]
mutant_id = "V18P"
reported_result = 3.05

[[record]]
mutant_id = "R16G"
reported_result = 2.99


Q) Specify protein stability index for "A10E" and stop.
A) 2.97

Q) For the variant "L11A" , give its measured protein stability index value.
A) 3.06

Every entry's value here was drawn from the supplement of paper PMC10567573.
